target: furin, P09958; test: furin cleavage Z-score vs untreated control; higher = more cleavage, active = 3.5 or more, inactive = 1 or less, 8 variable residues between constant flanks; conditions: 30 min;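 further: purified furin at 1:10 enzyme:substrate in 50 mM HEPES pH 7.5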
Sequence (P09958 whole entry): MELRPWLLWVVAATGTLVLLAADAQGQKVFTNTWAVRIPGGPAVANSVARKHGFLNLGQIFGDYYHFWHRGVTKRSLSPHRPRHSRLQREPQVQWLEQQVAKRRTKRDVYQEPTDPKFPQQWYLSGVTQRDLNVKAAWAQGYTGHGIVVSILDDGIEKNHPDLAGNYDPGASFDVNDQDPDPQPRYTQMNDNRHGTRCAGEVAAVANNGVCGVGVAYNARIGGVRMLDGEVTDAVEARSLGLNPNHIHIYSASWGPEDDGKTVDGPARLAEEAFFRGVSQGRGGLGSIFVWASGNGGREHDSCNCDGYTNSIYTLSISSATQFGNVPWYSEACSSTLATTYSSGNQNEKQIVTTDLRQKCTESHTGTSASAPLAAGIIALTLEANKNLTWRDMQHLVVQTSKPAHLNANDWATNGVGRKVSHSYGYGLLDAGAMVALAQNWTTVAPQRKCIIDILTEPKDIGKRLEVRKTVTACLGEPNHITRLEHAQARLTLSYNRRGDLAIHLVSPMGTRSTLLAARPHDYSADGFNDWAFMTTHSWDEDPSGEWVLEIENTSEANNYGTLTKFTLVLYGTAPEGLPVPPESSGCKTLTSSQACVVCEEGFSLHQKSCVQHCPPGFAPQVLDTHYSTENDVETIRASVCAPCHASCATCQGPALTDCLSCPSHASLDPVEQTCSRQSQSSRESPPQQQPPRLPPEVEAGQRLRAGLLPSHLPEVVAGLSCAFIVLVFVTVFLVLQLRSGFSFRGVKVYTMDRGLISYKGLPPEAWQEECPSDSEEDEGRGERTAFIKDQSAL
The other results are listed elsewhere or left out. The hit rate among all sequences tested is not known here.
Bench note: report the call from true (1) for active, false (0) for inactive

Here's what some known entries look like.
CARWGRYEGGAGNASASA [FS-2844] ... false (0)
CADARRSPDQAGNASASA [FS-2627] ... false (0)
CARWKRYQRSAGNASASA [FS-142] ... true (1)
CASGSWLRDIAGNASASA [HC1147] ... false (0)

Test call for this sequence, please: CAHAWRSRRSAGNASASA [FS-1629]
true (1)

Test call for this sequence, please: CARPRRSSTQAGNASASA [FS-3025]
true (1)

Test call for this sequence, please: CAFCALARKMAGNASASA [HC621]
false (0)

Test call for this sequence, please: CARWKRTQRHAGNASASA [FS-2623]
true (1)

Test call for this sequence, please: CARPRRGSTAAGNASASA [FS-2743]
false (0)
